From: patent US20130035326A1

Target or system FLT3 kinase (Homo sapiens); recorded quantity pKd.
pKd: −log10 of the molar value.

Consider the following illustrative entries.
Compound: COc1cc(-c2ccc(N)nc2)ccc1NC(=O)Nc1cc(C(C)(CF)CF)on1 [Example 68, methanesulfonate]
Observed result: 8.00 to 9.00
--
Compound: CC1(c2cc(NC(=O)Cc3ccc(-c4cnc(N)c(C(F)(F)F)c4)cc3)no2)COC1.CS(=O)(=O)O [Example 135, methanesulfonate]
Observed result: ≥ 9.00
--
Compound: CC(C)(CO)c1cc(NC(=O)Cc2ccc(-c3ccc(N)nc3)cc2)on1 [Example 83, methanesulfonate]
Observed result: ≥ 9.00

Given the compound CC(C)(C)c1cc(NC(=O)Cc2ccc(-c3cnc(N)c(C#N)c3)cc2)no1 [Example 93, methanesulfonate] and test system FLT3 kinase (Homo sapiens), the measured pKd is 8.00 to 9.00

====

Dear all, this message contains Kd results, target or system CSF-1R kinase (Homo sapiens, UniProt P07333).

Compound: CCNc1ccc(-c2ccc(CC(=O)Nc3cc(C(C)(C)C)on3)cc2)cn1.CS(=O)(=O)O [Example 111, methanesulfonate]
Assayed target: CSF-1R kinase (Homo sapiens, UniProt P07333)
Sequence (P07333 20-972): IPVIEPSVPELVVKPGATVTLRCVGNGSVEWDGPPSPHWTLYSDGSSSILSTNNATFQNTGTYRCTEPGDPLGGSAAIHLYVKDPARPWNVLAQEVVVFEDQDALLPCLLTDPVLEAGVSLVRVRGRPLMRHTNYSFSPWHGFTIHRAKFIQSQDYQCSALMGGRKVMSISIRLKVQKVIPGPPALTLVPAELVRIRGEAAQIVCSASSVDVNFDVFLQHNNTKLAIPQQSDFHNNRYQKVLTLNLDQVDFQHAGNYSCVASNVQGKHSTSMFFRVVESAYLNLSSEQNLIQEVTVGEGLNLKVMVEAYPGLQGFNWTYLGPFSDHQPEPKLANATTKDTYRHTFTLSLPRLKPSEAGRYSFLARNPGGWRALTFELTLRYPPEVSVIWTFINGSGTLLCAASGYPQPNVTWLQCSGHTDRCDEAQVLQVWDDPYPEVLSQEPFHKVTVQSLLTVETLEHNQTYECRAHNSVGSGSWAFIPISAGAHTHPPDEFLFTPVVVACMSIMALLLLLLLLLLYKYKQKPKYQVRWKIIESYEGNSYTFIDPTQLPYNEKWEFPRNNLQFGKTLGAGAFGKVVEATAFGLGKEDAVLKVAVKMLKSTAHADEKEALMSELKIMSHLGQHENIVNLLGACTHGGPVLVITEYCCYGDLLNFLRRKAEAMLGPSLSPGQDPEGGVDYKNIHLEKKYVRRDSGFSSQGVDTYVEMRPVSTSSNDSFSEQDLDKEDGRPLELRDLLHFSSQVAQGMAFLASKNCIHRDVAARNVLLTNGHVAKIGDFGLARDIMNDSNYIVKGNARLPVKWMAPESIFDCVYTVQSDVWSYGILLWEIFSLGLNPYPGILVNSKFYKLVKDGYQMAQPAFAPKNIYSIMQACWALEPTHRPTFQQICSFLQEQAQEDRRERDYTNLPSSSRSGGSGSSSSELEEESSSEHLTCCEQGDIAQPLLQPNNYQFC
Kd: ≤ 10 nM

GET /value?item= CC(C)(c1cc(NC(=O)Cc2ccc(-c3ccc(N)nc3)cc2)no1)C(F)(F)F [Example 72, acetate] &field=Kd returns ≤ 10 nM

// field: Kd; key: CC(C)(CO)c1cc(NC(=O)Cc2ccc(-c3ccc(N)nc3)cc2)no1 [Example 88, methanesulfonate] ; value = 10 to 100 nM

Measured Kd of COc1cc(N)ncc1-c1ccc(CC(=O)Nc2cc(C(C)(C)C)on2)cc1 : 10 to 100 nM

Kd recorded for this compound, CC(C)(C)c1cc(NC(=O)Cc2ccc(-c3cnc(N)cc3Cl)cc2)no1.CS(=O)(=O)O [Example 150, methanesulfonate] , is ≤ 10 nM

So, Cc1cc(N)ncc1-c1ccc(CC(=O)Nc2cc(C(C)(C)C)on2)cc1 [Example 86, methanesulfonate] ? Its Kd was 10 to 100 nM

Per the records, this compound ( CC(C)(C)c1cc(NC(=O)Nc2ccc(-c3cnc(NC4CCOCC4)nc3)cn2)no1 ) has Kd equal to ≤ 10 nM

Per the records, this compound ( CC(C)(C)c1cc(NC(=O)Cc2ccc(-c3cc(F)c(N)nc3F)cc2)no1.CS(=O)(=O)O [Example 152, methanesulfonate] ) has Kd equal to ≤ 10 nM

The reported Kd of the compound CNc1ccc(-c2ccc(CC(=O)Nc3cc(C(C)(C)C)on3)cc2)cn1.CS(=O)(=O)O [Example 110, methanesulfonate] was ≤ 10 nM

Input COc1cc(-c2ccc(N)nc2)ccc1NC(=O)Nc1cc(C(C)(C)C)on1 [Example 69, methanesulfonate] . Output Kd: ≤ 10 nM

Measured Kd of COc1nc(N)ccc1-c1ccc(CC(=O)Nc2cc(C(C)(C)C)on2)cc1.CS(=O)(=O)O [Example 131, methanesulfonate] : > 500 nM

Per the record, CC(=O)O.Nc1ccc(-c2ccc(CC(=O)Nc3cc(C4(CF)CC4)on3)cc2)cn1 [Example 103, acetate] has Kd of ≤ 10 nM

Just so you know, measured Kd for Cn1nc(C(C)(C)CF)cc1NC(=O)Nc1ccc(-c2ccc(N)nc2)cc1 [Example 90, acetate] came out at 10 to 100 nM

Per the records, this compound ( Nc1ncc(-c2ccc(NC(=O)Cc3cccc(C(F)(F)F)c3)cc2)cn1 ) has Kd equal to 10 to 100 nM

Kd for CC(C)(C)c1cc(NC(=O)Cc2ccc(-c3ccc(NCCN4CCOCC4)nc3)cc2)no1.CS(=O)(=O)O [Example 105, methanesulfonate] is ≤ 10 nM
